- SYSTEM_NAME: Neuraminidase from Clostridium perfringens (C. welchii) (EC 3.2.1.18)
- Type: biochemical
- MEASUREMENT_PARAMETERS: concentration that caused 50% enzyme activity loss; three repeats; pH 5.0, 37 °C; read-out: IC50, bacterial neuraminidase
pIC50: −log10 of the molar value.
Reported pIC50 values follow for various molecules
QUANTITY: pIC50

O=c1cc(-c2ccc(O)cc2)oc2cc(O)cc(O)c12 [Apigenin, apigenin, reference compound]	3.97
CC(C)=CCc1c(O)cc(O)c2c1OC(c1ccc(O)cc1)C(O)C2=O (stereo not shown) [Compound 2]	6.17
O=c1c(O)c(-c2ccc(O)c(O)c2)oc2cc(O)cc(O)c12 [Quercetin, reference compound]	4.69
CC(C)=CCc1cc(-c2cc(=O)c3c(O)cc(O)c(CC=C(C)C)c3o2)cc(O)c1O [Compound 1, epimedokoreanin B]	6.77

---

- Test system: Neuraminidase from Clostridium perfringens (bacterial neuraminidase)
- Format: binding
- MEASUREMENT_PARAMETERS: fluorescence quenching, pH 5.0
Reported KA (binding constant) values follow for various compounds
QUANTITY: KA (binding constant)

CC(C)=CCc1cc(-c2cc(=O)c3c(O)cc(O)c(CC=C(C)C)c3o2)ccc1O [Compound 3, 5,7,4′-trihydroxy-8,3′-diprenyl flavone]	760400 L/mol
CC(C)=CCc1c(O)cc(O)c2c1OC(c1ccc(O)cc1)C(O)C2=O (stereo not shown)	792300 L/mol
COc1ccc(-c2oc3c(c(O)cc4oc(C(C)(C)OC)cc43)c(=O)c2OC2OC(C)C(O)C(O)C2O)cc1 (stereo not shown)	785100 L/mol
COc1ccc(-c2oc3c(CC=C(C)C)c(O[C@@H]4O[C@H](CO)[C@@H](O)[C@H](O)[C@H]4O)cc(O)c3c(=O)c2O[C@@H]2O[C@@H](C)[C@H](O)[C@@H](O)[C@H]2O)cc1	584400 L/mol
O=C1c2c(O)cc(O)cc2O[C@H](c2ccc(O)cc2)[C@H]1O [Dihydrokaempferol, dihydrokaempferol, reference compound]	299800 L/mol
O=c1cc(-c2ccc(O)cc2)oc2cc(O)cc(O)c12 [Apigenin, apigenin, reference compound]	514200 L/mol
CC(C)=CCc1cc(-c2cc(=O)c3c(O)cc(O)c(CC=C(C)C)c3o2)cc(O)c1O [Compound 1, epimedokoreanin B]	966600 L/mol
